// provenance: ChEMBL document CHEMBL1201861

System: MDA-MB-361
protocol_notes: cells
Assay type: functional, cell-based, Homo sapiens
condition_description: mda-mb-361
pIC50: −log10 of the molar value.
measured_attribute: pIC50

Item: `Cc1cc([C@@H](C)Nc2ccccc2C(=O)O)c2nc(N3CCOCC3)cc(=O)n2c1` | pIC50: < 5.29

====

Tested on: EB-3;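 also: human EB-3 cells, growth inhibition read out via a cell viability assay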
protocol_notes: cells
Format: functional, cell-based
condition_description: Homo sapiens
Description: SANGER: Inhibition of human EB-3 cell growth in a cell viability assay.
pIC50: −log10 of the molar value.
Measured pIC50 by item

>>> experimental_value("CNC(=O)c1cc(Oc2ccc(NC(=O)Nc3ccc(Cl)c(C(F)(F)F)c3)cc2)ccn1 [SORAFENIB]")
"< 5.40"

Item: Cc1cc([C@@H](C)Nc2ccccc2C(=O)O)c2nc(N3CCOCC3)cc(=O)n2c1 [AZD-6482] | pIC50: < 5.29

Item: Cc1ccc(Nc2nccc(N(C)c3ccc4c(C)n(C)nc4c3)n2)cc1S(N)(=O)=O [PAZOPANIB] | pIC50: < 5.10

Item: CCC(=O)N1CCN(c2ccc(-n3c(=O)ccc4cnc5ccc(-c6cnc7ccccc7c6)cc5c43)cc2C(F)(F)F)CC1 [TORIN1] | pIC50: 7.44

Item: C[C@]1(O)C[C@@H](c2nc(-c3ccc4ccc(-c5ccccc5)nc4c3)c3c(N)nccn32)C1 [LINSITINIB] | pIC50: < 5.59

Item: COc1cc([C@@H]2c3cc4c(cc3[C@@H](O[C@@H]3O[C@@H]5CO[C@@H](C)O[C@H]5[C@H](O)[C@H]3O)[C@H]3COC(=O)[C@H]23)OCO4)cc(OC)c1O [ETOPOSIDE] | pIC50: < 4.80

Item: CS(=O)(=O)CCNCc1ccc(-c2ccc3ncnc(Nc4ccc(OCc5cccc(F)c5)c(Cl)c4)c3c2)o1 [LAPATINIB] | pIC50: < 5.70

====

Measured IC50 by item
Test system: IST-MEL1;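 also: growth inhibition of the cell line, read out with a cell viability assay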
protocol_notes: cells
Assay type: functional, cell-based, Homo sapiens
condition_description: Homo sapiens, IST-MEL1
Description: SANGER: Inhibition of human IST-MEL1 cell growth in a cell viability assay.
Please respond with the number in µM and leave the unit unwritten.

>>> experimental_value("COc1ccc(-c2ccc3c(N4CCOC[C@@H]4C)nc(N4CCOC[C@@H]4C)nc3n2)cc1CO [AZD-8055]")
1.19
>>> experimental_value("COc1cc([C@@H]2c3cc4c(cc3[C@@H](O[C@@H]3O[C@@H]5CO[C@@H](C)O[C@H]5[C@H](O)[C@H]3O)[C@H]3COC(=O)[C@H]23)OCO4)cc(OC)c1O [ETOPOSIDE]")
3

Here is the next item to consider.
Item: CN(Cc1cnc2nc(N)nc(N)c2n1)c1ccc(C(=O)N[C@@H](CCC(=O)O)C(=O)O)cc1 [METHOTREXATE] | IC50: 0.126

====

System: MIA PaCa-2
protocol_notes: cells
Format: functional, cell-based, Homo sapiens
condition_description: mia paca-2
Description: SANGER: Inhibition of human MIA-PaCa-2 cell growth in a cell viability assay.
measured_attribute: IC50

Item: `Cc1cc([C@@H](C)Nc2ccccc2C(=O)O)c2nc(N3CCOCC3)cc(=O)n2c1` | IC50: > 5.12 µM

====

Tested on: NB69;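 also: growth inhibition of NB69 cells, determined by a cell viability assay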
protocol_notes: cells
Format: functional, cell-based, Homo sapiens
condition_description: nb69
Description: SANGER: Inhibition of human NB69 cell growth in a cell viability assay.
measured_attribute: IC50

Value sought: IC50, system NB69, item `Cc1cc([C@@H](C)Nc2ccccc2C(=O)O)c2nc(N3CCOCC3)cc(=O)n2c1` . Result: > 5.12 µM
